The reported measurements were obtained from patent EP0346760A2.

Tested on: Staph. aureus (285)
Experiment: Agar dilution test (Lorian), antibacterial activity
Type: cell-based
Details: Staphylococcus aureus; Staph. aureus (285); Müller Hinton Agar, 16 to 18 h at 37°C; read-out: MIC
assay metric: MIC (mg/L)

compound | assay metric | uom | measurement
COC1CC(CC2CCC(C)C(C(C)C(=O)O)O2)OC2(OC(C)(C3CCC(C)(C4OC(C5OC(O)(CCl)C(C)CC5C)CC4C)O3)CC2C)C1C (centres unmarked) | MIC | mg/L | 0.098
COCC1(O)OC(C2CC(C)C(C3(C)CCC(C4(C)CC(C)C5(OC(CC6CCC(C)C(C(C)C(=O)O)O6)CC(OC)C5C)O4)O3)O2)C(C)CC1C (centres unmarked) | MIC | mg/L | 0.78
COC1CC(CC2CCC(C)C(C(C)C(=O)O)O2)OC2(OC(C)(C3CCC(C)(C4OC(C5OC(O)(C[N+](=O)[O-])C(C)CC5C)CC4C)O3)CC2C)C1C (centres unmarked) | MIC | mg/L | 0.049
COC1CC(CC2CCC(C)C(C(C)C(=O)O)O2)OC2(OC(C)(C3CCC(C)(C4OC(C5OC(O)(CBr)C(C)CC5C)CC4C)O3)CC2C)C1C (centres unmarked) | MIC | mg/L | 0.013
CCCCOCC1(O)OC(C2CC(C)C(C3(C)CCC(C4(C)CC(C)C5(OC(CC6CCC(C)C(C(C)C(=O)O)O6)CC(OC)C5C)O4)O3)O2)C(C)CC1C (centres unmarked) | MIC | mg/L | 1.56

---

Tested on: Rhinovirus II
Assay type: cell-based
Conditions: Rhino. II; HeLa or Vero cells, 72 h CPE; about 50 % of the cells survive
Let's look at some compounds and their measured MHK.

compound | MHK
COC1CC(CC2CCC(C)C(C(C)C(=O)O)O2)OC2(OC(C)(C3CCC(C)(C4OC(C5OC(O)(CCl)C(C)CC5C)CC4C)O3)CC2C)C1C (centres unmarked) | 0,49 µg/ml
COCC1(O)OC(C2CC(C)C(C3(C)CCC(C4(C)CC(C)C5(OC(CC6CCC(C)C(C(C)C(=O)O)O6)CC(OC)C5C)O4)O3)O2)C(C)CC1C (centres unmarked) | 1,48 µg/ml
COC1CC(CC2CCC(C)C(C(C)C(=O)O)O2)OC2(OC(C)(C3CCC(C)(C4OC(C5OC(O)(CBr)C(C)CC5C)CC4C)O3)CC2C)C1C (centres unmarked) | 0,3 µg/ml
CCCCOCC1(O)OC(C2CC(C)C(C3(C)CCC(C4(C)CC(C)C5(OC(CC6CCC(C)C(C(C)C(=O)O)O6)CC(OC)C5C)O4)O3)O2)C(C)CC1C (centres unmarked) | 4,44 µg/ml
COC1CC(CC2CCC(C)C(C(C)C(=O)O)O2)OC2(OC(C)(C3CCC(C)(C4OC(C5OC(O)(CO[Si](c6ccccc6)(c6ccccc6)C(C)(C)C)C(C)CC5C)CC4C)O3)CC2C)C1C (centres unmarked) | 4,44 µg/ml

---

Tested on: HeLa- bzw. Vero-Zellen
Assay: Maximum tolerated dose (DTM) in cell culture
Type: cell-based
Conditions: HeLa or Vero cells
DTM (Dosis Tolerata Maxima) for assorted molecules

molecule | DTM (Dosis Tolerata Maxima)
CCCCOCC1(O)OC(C2CC(C)C(C3(C)CCC(C4(C)CC(C)C5(OC(CC6CCC(C)C(C(C)C(=O)O)O6)CC(OC)C5C)O4)O3)O2)C(C)CC1C (centres unmarked) | 13,3 µg/ml
COC1CC(CC2CCC(C)C(C(C)C(=O)O)O2)OC2(OC(C)(C3CCC(C)(C4OC(C5OC(O)(CBr)C(C)CC5C)CC4C)O3)CC2C)C1C (centres unmarked) | 0,89 µg/ml
COC1CC(CC2CCC(C)C(C(C)C(=O)O)O2)OC2(OC(C)(C3CCC(C)(C4OC(C5OC(O)(CCl)C(C)CC5C)CC4C)O3)CC2C)C1C (centres unmarked) | 1,48 µg/ml
COC1CC(CC2CCC(C)C(C(C)C(=O)O)O2)OC2(OC(C)(C3CCC(C)(C4OC(C5OC(O)(CO[Si](c6ccccc6)(c6ccccc6)C(C)(C)C)C(C)CC5C)CC4C)O3)CC2C)C1C (centres unmarked) | 4,44 µg/ml
COCC1(O)OC(C2CC(C)C(C3(C)CCC(C4(C)CC(C)C5(OC(CC6CCC(C)C(C(C)C(=O)O)O6)CC(OC)C5C)O4)O3)O2)C(C)CC1C (centres unmarked) | 4,44 µg/ml
